Test system: 233499-124-R-J3-PDC spheroids with HUVEC/MSC, viability
experimental_details: Anticancer human tumor 233499-124-R-J3-PDC patient-derived colon adenocarcinoma cell line growth inhibition [PI3K]
measurement_context: second compound 1 µM; first compound 0.316 µM; hits give low values
reported_property: viability, T/C (%)
Numbers only; they are read as %.

Take a look at these entries with their results.
1) C[C@@H](NC(=O)c1ncnc(N)c1Cl)c1ncc(C(=O)Nc2cc(C(F)(F)F)c(Cl)cn2)s1 + CC(Nc1ccc2c(c1)OCCn1cc(N3C(=O)OCC3C(F)F)nc1-2)C(N)=O; 52.5
2) C#Cc1c(F)ccc2cc(O)cc(-c3ncc4c(N5CC6CCC(C5)N6)nc(OCC56CCCN5CC(F)C6)nc4c3F)c12 (stereo not given) + CC(Nc1ncnc2nc[nH]c12)c1cc2cccc(Cl)c2c(=O)n1-c1ccccc1; 108

Endpoint output: viability, T/C of Cn1ncc(Cl)c1-c1cc(C(=O)NC(CN)Cc2cccc(F)c2)sc1Cl (stereo not given) + Cc1nc(NC(=O)N2CCCC2C(N)=O)sc1-c1ccnc(C(C)(C)C(F)(F)F)c1 . Value?
72.7

Please give the result for CC(C)NCC(C(=O)N1CCN(c2ncnc3c2C(C)CC3O)CC1)c1ccc(Cl)cc1 (stereo not given) + COc1c(OCCCN2CCOCC2)ccc2c3n(c(=NC(=O)c4cnc(N)nc4)nc12)CCN3 too.
6.6

Please give the result for Cn1nccc1Nc1nccc(-c2ccn(C(CO)c3ccc(Cl)c(F)c3)c(=O)c2)n1 (stereo not given) + Cc1nc(NC(=O)N2CCCC2C(N)=O)sc1-c1ccnc(C(C)(C)C(F)(F)F)c1 too.
31.1

* * *

System: 233499-124-R-J3-PDC spheroids with HUVEC/MSC, viability
experimental_details: Anticancer human tumor 233499-124-R-J3-PDC cell line growth inhibition [PI3K]
measurement_context: second compound 0.0316 µM; first compound 0.3 µM; hits give low values
Measured viability, T/C of individual entries

Take a look at these entries with their results.
1) Cn1cnc2c(F)c(Nc3ccc(Br)cc3Cl)c(C(=O)NOCCO)cc21 + CC(Nc1ncnc2nc[nH]c12)c1cc2cccc(Cl)c2c(=O)n1-c1ccccc1; 70.9%
2) Cn1cnc2c(F)c(Nc3ccc(Br)cc3Cl)c(C(=O)NOCCO)cc21 + CC(Nc1ccc2c(c1)OCCn1cc(N3C(=O)OCC3C(F)F)nc1-2)C(N)=O; 45.7%
3) Cn1cnc2c(F)c(Nc3ccc(Br)cc3Cl)c(C(=O)NOCCO)cc21 + COc1c(OCCCN2CCOCC2)ccc2c3n(c(=NC(=O)c4cnc(N)nc4)nc12)CCN3; 34.2%

Okay, now this compound:
Endpoint output: viability, T/C of Cn1cnc2c(F)c(Nc3ccc(Br)cc3Cl)c(C(=O)NOCCO)cc21 + Cc1nc(NC(=O)N2CCCC2C(N)=O)sc1-c1ccnc(C(C)(C)C(F)(F)F)c1 . Value?
47.3%

* * *

System: 233499-124-R-J3-PDC spheroids with HUVEC/MSC, viability
experimental_details: Anticancer human tumor 233499-124-R-J3-PDC cell line growth inhibition [PI3K];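 note: spheroids exposed to agents for seven days before readout; percent viability relative to DMSO vehicle control taken as 100%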
measurement_context: second compound 0.01 µM; first compound 1 µM; hits give low values
Measured viability, T/C of individual entries
Numbers only; they are read as %.

1. CC(Cn1ccc(-c2ccc(C#N)c(Cl)c2)n1)NC(=O)c1cc(C(C)O)[nH]n1 (stereo not drawn) + COc1c(OCCCN2CCOCC2)ccc2c3n(c(=NC(=O)c4cnc(N)nc4)nc12)CCN3; 102

Endpoint output: viability, T/C of CNC(=O)c1ccc(N2C(=S)N(c3ccc(C#N)c(C(F)(F)F)c3)C(=O)C2(C)C)cc1F + COc1c(OCCCN2CCOCC2)ccc2c3n(c(=NC(=O)c4cnc(N)nc4)nc12)CCN3 . Value?
87.7

Please give the result for C#Cc1c(F)ccc2cc(O)cc(-c3ncc4c(N5CC6CCC(C5)N6)nc(OCC56CCCN5CC(F)C6)nc4c3F)c12 (stereo not drawn) + COc1c(OCCCN2CCOCC2)ccc2c3n(c(=NC(=O)c4cnc(N)nc4)nc12)CCN3 too.
91.6

* * *

Measured viability, T/C of individual entries
Test system: 233499-124-R-J3-PDC spheroids with HUVEC/MSC, viability
experimental_details: Anticancer human tumor 233499-124-R-J3-PDC cell line growth inhibition [PI3K];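 note: spheroids exposed to agents for seven days before readout; percent viability relative to DMSO vehicle control taken as 100%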
measurement_context: second compound 1 µM; first compound 0.00949 µM; hits give low values
Numbers only; they are read as %.

Take a look at these entries with their results.
1) Cn1cnc2c(F)c(Nc3ccc(Br)cc3Cl)c(C(=O)NOCCO)cc21 + CC(Nc1ncnc2nc[nH]c12)c1cc2cccc(Cl)c2c(=O)n1-c1ccccc1; 96.6
2) Cn1cnc2c(F)c(Nc3ccc(Br)cc3Cl)c(C(=O)NOCCO)cc21 + CC(Nc1ccc2c(c1)OCCn1cc(N3C(=O)OCC3C(F)F)nc1-2)C(N)=O; 57
3) Cn1cnc2c(F)c(Nc3ccc(Br)cc3Cl)c(C(=O)NOCCO)cc21 + Cc1nc(NC(=O)N2CCCC2C(N)=O)sc1-c1ccnc(C(C)(C)C(F)(F)F)c1; 88.5

Endpoint output: viability, T/C of Cn1cnc2c(F)c(Nc3ccc(Br)cc3Cl)c(C(=O)NOCCO)cc21 + COc1c(OCCCN2CCOCC2)ccc2c3n(c(=NC(=O)c4cnc(N)nc4)nc12)CCN3 . Value?
2.93

* * *

System: 233499-124-R-J3-PDC spheroids with HUVEC/MSC, viability
experimental_details: Anticancer human tumor 233499-124-R-J3-PDC cell line growth inhibition [PI3K];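 note: spheroids exposed to agents for seven days before readout; percent viability relative to DMSO vehicle control taken as 100%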
measurement_context: second compound 1 µM; first compound 0.316 µM; hits give low values
reported_property: viability, T/C (%)
Numbers only; they are read as %.

Take a look at these entries with their results.
1) C[C@@H](NC(=O)c1ncnc(N)c1Cl)c1ncc(C(=O)Nc2cc(C(F)(F)F)c(Cl)cn2)s1 + Cc1nc(NC(=O)N2CCCC2C(N)=O)sc1-c1ccnc(C(C)(C)C(F)(F)F)c1; 69
2) CCCS(=O)(=O)Nc1ccc(F)c(C(=O)c2c[nH]c3ncc(-c4ccc(Cl)cc4)cc23)c1F + CC(Nc1ccc2c(c1)OCCn1cc(N3C(=O)OCC3C(F)F)nc1-2)C(N)=O; 54.9
3) C=CC(=O)N1CCN(c2nc(=O)n(-c3c(C)ccnc3C(C)C)c3nc(-c4c(O)cccc4F)c(F)cc23)C(C)C1 (stereo unspecified) + CC(Nc1ncnc2nc[nH]c12)c1cc2cccc(Cl)c2c(=O)n1-c1ccccc1; 87.8
4) C#Cc1c(F)ccc2cc(O)cc(-c3ncc4c(N5CC6CCC(C5)N6)nc(OCC56CCCN5CC(F)C6)nc4c3F)c12 (stereo unspecified) + Cc1nc(NC(=O)N2CCCC2C(N)=O)sc1-c1ccnc(C(C)(C)C(F)(F)F)c1; 83.4
5) CC(Cn1ccc(-c2ccc(C#N)c(Cl)c2)n1)NC(=O)c1cc(C(C)O)[nH]n1 (stereo unspecified) + COc1c(OCCCN2CCOCC2)ccc2c3n(c(=NC(=O)c4cnc(N)nc4)nc12)CCN3; 7.23
6) CCN1CCN(Cc2ccc(Nc3ncc(F)c(-c4cc(F)c5nc(C)n(C(C)C)c5c4)n3)nc2)CC1 + CC(Nc1ncnc2nc[nH]c12)c1cc2cccc(Cl)c2c(=O)n1-c1ccccc1; 54.3
7) CC(C)NCC(C(=O)N1CCN(c2ncnc3c2C(C)CC3O)CC1)c1ccc(Cl)cc1 (stereo unspecified) + CC(Nc1ccc2c(c1)OCCn1cc(N3C(=O)OCC3C(F)F)nc1-2)C(N)=O; 65.2
8) CCN1CCN(Cc2ccc(Nc3ncc(F)c(-c4cc(F)c5nc(C)n(C(C)C)c5c4)n3)nc2)CC1 + Cc1nc(NC(=O)N2CCCC2C(N)=O)sc1-c1ccnc(C(C)(C)C(F)(F)F)c1; 38.4
9) CCCS(=O)(=O)Nc1ccc(F)c(C(=O)c2c[nH]c3ncc(-c4ccc(Cl)cc4)cc23)c1F + Cc1nc(NC(=O)N2CCCC2C(N)=O)sc1-c1ccnc(C(C)(C)C(F)(F)F)c1; 86.3
10) Cn1ncc(Cl)c1-c1cc(C(=O)NC(CN)Cc2cccc(F)c2)sc1Cl (stereo unspecified) + CC(Nc1ncnc2nc[nH]c12)c1cc2cccc(Cl)c2c(=O)n1-c1ccccc1; 86.1

Okay, now this molecule:
# returns recorded viability, T/C (system: 233499-124-R-J3-PDC spheroids with HUVEC/MSC, viability) for CCCS(=O)(=O)Nc1ccc(F)c(C(=O)c2c[nH]c3ncc(-c4ccc(Cl)cc4)cc23)c1F + COc1c(OCCCN2CCOCC2)ccc2c3n(c(=NC(=O)c4cnc(N)nc4)nc12)CCN3
6.83

* * *

System: 233499-124-R-J3-PDC spheroids with HUVEC/MSC, viability
experimental_details: Anticancer human tumor 233499-124-R-J3-PDC cell line growth inhibition [PI3K];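 note: spheroids exposed to agents for seven days before readout; percent viability relative to DMSO vehicle control taken as 100%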
measurement_context: second compound 0.00316 µM; first compound 3.16 µM; hits give low values
Measured viability, T/C of individual entries

Take a look at these entries with their results.
1) CCCS(=O)(=O)Nc1ccc(F)c(C(=O)c2c[nH]c3ncc(-c4ccc(Cl)cc4)cc23)c1F + COc1c(OCCCN2CCOCC2)ccc2c3n(c(=NC(=O)c4cnc(N)nc4)nc12)CCN3; 79.6%
2) Cn1ncc(Cl)c1-c1cc(C(=O)NC(CN)Cc2cccc(F)c2)sc1Cl (stereo not given) + COc1c(OCCCN2CCOCC2)ccc2c3n(c(=NC(=O)c4cnc(N)nc4)nc12)CCN3; 58.9%
3) CC1(C)CCC(Nc2ncc(C(F)(F)F)c(-c3c[nH]c4c(P(C)(C)=O)c(C#N)ccc34)n2)CN1 (stereo not given) + COc1c(OCCCN2CCOCC2)ccc2c3n(c(=NC(=O)c4cnc(N)nc4)nc12)CCN3; 29.5%
4) CCCS(=O)(=O)Nc1ccc(F)c(C(=O)c2c[nH]c3ncc(-c4ccc(Cl)cc4)cc23)c1F + CC(Nc1ccc2c(c1)OCCn1cc(N3C(=O)OCC3C(F)F)nc1-2)C(N)=O; 104%
5) C=CC(=O)N1CCN(c2nc(=O)n(-c3c(C)ccnc3C(C)C)c3nc(-c4c(O)cccc4F)c(F)cc23)C(C)C1 (stereo not given) + COc1c(OCCCN2CCOCC2)ccc2c3n(c(=NC(=O)c4cnc(N)nc4)nc12)CCN3; 88.4%

Endpoint output: viability, T/C of CNC(=O)c1ccc(N2C(=S)N(c3ccc(C#N)c(C(F)(F)F)c3)C(=O)C2(C)C)cc1F + COc1c(OCCCN2CCOCC2)ccc2c3n(c(=NC(=O)c4cnc(N)nc4)nc12)CCN3 . Value?
65.7%

Please give the result for CC1(C)CCC(CN2CCN(c3ccc(C(=O)NS(=O)(=O)c4ccc(NCC5CCOCC5)c([N+](=O)[O-])c4)c(Oc4cnc5[nH]ccc5c4)c3)CC2)=C(c2ccc(Cl)cc2)C1 + CC(Nc1ccc2c(c1)OCCn1cc(N3C(=O)OCC3C(F)F)nc1-2)C(N)=O too.
90.1%

Please give the result for C#Cc1c(F)ccc2cc(O)cc(-c3ncc4c(N5CC6CCC(C5)N6)nc(OCC56CCCN5CC(F)C6)nc4c3F)c12 (stereo not given) + COc1c(OCCCN2CCOCC2)ccc2c3n(c(=NC(=O)c4cnc(N)nc4)nc12)CCN3 too.
81%

Please give the result for Cn1nccc1Nc1nccc(-c2ccn(C(CO)c3ccc(Cl)c(F)c3)c(=O)c2)n1 (stereo not given) + COc1c(OCCCN2CCOCC2)ccc2c3n(c(=NC(=O)c4cnc(N)nc4)nc12)CCN3 too.
80.1%

Please give the result for C[C@@H](NC(=O)c1ncnc(N)c1Cl)c1ncc(C(=O)Nc2cc(C(F)(F)F)c(Cl)cn2)s1 + CC(Nc1ccc2c(c1)OCCn1cc(N3C(=O)OCC3C(F)F)nc1-2)C(N)=O too.
126%
